Quick reference: Plant response rating (0 to 100 scale, 0 no effect, 100 complete control), Kochia of the listed items.
tested on: kochia (Kochia scoparia); experiment: Test A postemergence application; assay type: in vivo; conditions: 31 g ai/ha, approx. 10 days
Quantity Kind: Plant response rating (0 to 100 scale, 0 no effect, 100 complete control), Kochia

Smiles String: O=c1cccc(Oc2ncc(Cl)cn2)n1-c1ncc(C(F)(F)F)cn1
Numeric Value: 40
//
Smiles String: O=c1cccc(Oc2ncc(Cl)cn2)n1-c1ncc(Cl)cn1
Numeric Value: 80
//
Smiles String: O=c1cccc(Oc2ncc(Cl)cn2)n1-c1ccc(F)cn1
Numeric Value: 70
//
Smiles String: O=c1cccc(Oc2ncc(Cl)cn2)n1-c1ccc(C(F)(F)F)cc1
Numeric Value: 80
//
Smiles String: O=c1cccc(Oc2ncc(Cl)cn2)n1-c1ccc(C(F)(F)F)cn1
Numeric Value: 80
//
Smiles String: O=c1cccc(Oc2ncc(Cl)cn2)n1-c1ccc(Cl)cn1
Numeric Value: 70
//
Smiles String: O=c1cccc(Oc2ncc(Cl)cn2)n1-c1ncc(F)cn1
Numeric Value: 40
